- TARGET UNDER TEST: Cytochrome P450 2C19 (Homo sapiens, UniProt P33261); also: in other assays of this panel Not Active means under 50% inhibition at 10 µM
- Sequence (P33261 whole entry): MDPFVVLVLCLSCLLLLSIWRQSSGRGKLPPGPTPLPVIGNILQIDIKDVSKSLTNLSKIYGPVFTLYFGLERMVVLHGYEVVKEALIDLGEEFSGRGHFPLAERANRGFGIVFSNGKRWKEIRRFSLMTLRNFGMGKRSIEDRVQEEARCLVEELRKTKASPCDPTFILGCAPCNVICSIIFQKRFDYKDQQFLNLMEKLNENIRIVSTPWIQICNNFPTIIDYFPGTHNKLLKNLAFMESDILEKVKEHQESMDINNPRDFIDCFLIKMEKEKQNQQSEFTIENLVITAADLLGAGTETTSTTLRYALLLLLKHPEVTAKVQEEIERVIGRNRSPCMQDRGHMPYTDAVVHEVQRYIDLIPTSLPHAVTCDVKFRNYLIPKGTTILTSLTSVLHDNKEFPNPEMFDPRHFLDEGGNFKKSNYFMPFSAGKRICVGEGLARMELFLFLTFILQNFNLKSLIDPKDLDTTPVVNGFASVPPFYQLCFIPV
- RUN PARAMETERS: bti-tn-5b1-4

COMPOUND	TARGET UNDER TEST	IC50
C#C[C@]1(O)CC[C@H]2[C@@H]3CCC4=CC(=O)CC[C@]4(C)[C@H]3CC[C@@]21C	Cytochrome P450 2C19 (Homo sapiens, UniProt P33261)	Not Active
CC(=O)OCC(=O)[C@@]1(O)CC[C@H]2[C@@H]3CCC4=CC(=O)CC[C@]4(C)[C@@]3(F)[C@@H](O)C[C@@]21C [FLUDROCORTISONE ACETATE]	Cytochrome P450 2C19 (Homo sapiens, UniProt P33261)	Not Active
CC[C@H]1[C@@H]2C[C@H]3[C@@H]4N(C)c5ccccc5[C@]45C[C@@H]([C@@H]2[C@H]5O)N3[C@@H]1O	Cytochrome P450 2C19 (Homo sapiens, UniProt P33261)	Not Active
